Reference source: PubChem BioAssay (NCATS)

# Test system: JEG-3
# TEST SUMMARY: Primary qHTS to identify gynecologic anti-cancer compounds using libraries of approved drugs and bioactive compounds (AID 1345084); note: % is set by controls: 0 for no effect and ±100 for the full control effect; nearly all actives have a fitted effect of over 55% in size
# COND: Gynecologic cancer cell panel viability, ATPlite luminescence, 48 h; series mostly up to 57.5 µM
Results filed as inconclusive are left out. Calls of active or inactive are those of the source. Calls come from the whole dose curve; as a rule, active = well fitted cell-killing curve with a large enough effect; inconclusive = small, poorly fitted or top-dose-only effect, or effect the other way; inactive = flat fitted curve, though single readings scatter.
MEASUREMENT LABEL: activity change, negative = cytotoxicity

COMPOUND	TEST RESULT
CC1(C)CC[C@]2(C(=O)O)CC[C@]3(C)C(=CCC4[C@@]5(C)CC[C@H](O[C@H]6O[C@H](C(=O)O)[C@@H](O)[C@H](O[C@@H]7O[C@H](CO)[C@H](O)[C@H](O)[C@H]7O)[C@H]6O)C(C)(C)C5CC[C@]43C)[C@@H]2C1 (some centres not stated)	-1.28% [at 11.6 µM] (inactive)
CCCC/C=C\CCCCCc1cc(=O)c2ccccc2n1C	inactive
C/C=C/C=C/C=C/C(=O)O[C@@H]1[C@@H](OC)C2=C(C(=O)N(C(CCC(=O)O)C(=O)O)C2)[C@@]2(C)CCCC(C)(C)[C@H]12 (some centres not stated)	inactive
CCc1nn(CCO)c(CC)c1Oc1cc(C#N)cc(C#N)c1	inactive
O=C(O)c1ccnc2cc(-c3nc4ccccc4n3CCN3CCCCC3)sc12	inactive
C=C1[C@H](OC(C)=O)[C@H]2[C@@H](OC(=O)c3ccccc3)[C@@H](C)C[C@]2(O)[C@@H](OC(C)=O)[C@H](C)/C=C/C(C)(C)C(=O)[C@H](OC(C)=O)[C@H]1OC(C)=O	inactive
CC(C)(O)[C@@H]1CC[C@]2(CO)[C@@H](O)CC[C@](C)(O)[C@H]2[C@@H]1O[C@@H]1O[C@H](CO)[C@@H](O)[C@H](O)[C@H]1O	inactive

###

# Test system: HACAT
# TEST SUMMARY: qHTS assay to identify novel small-molecules to repurpose for Merkel cell carcinoma treatment (AID 1296009); note: nearly all actives have a fitted effect of over 60% in size
# COND: MCC and control cell lines, CellTiter-Glo viability, 72 h; at 44.8 µM (top of the series) unless noted
Records with an inconclusive call do not appear. Activity calls are given as the source filed them. The call rests on the fitted dose curve; in most records, active means well fitted inhibition curve with a large enough effect; inconclusive means small, poorly fitted or top-dose-only effect; inactive means flat fitted curve, though single readings scatter.
MEASUREMENT LABEL: outcome

COMPOUND	TEST RESULT
NC1(c2ccc(NC(=O)c3ccnc(-c4cc(C(=O)O)ccn4)c3)cc2)CC1	inactive
NC(=O)c1ccc(F)c2c1C[C@@H](N(C1CCC1)C1CCC1)CO2	inactive
C=C1CC23CC1CCC2C12OC(=O)C(C)(C(O)CC1O)C2C3C(=O)O (configuration not stated)	inactive
CC(=O)/C=C/C1(O)C(C)=CC(=O)CC1(C)C (configuration not stated)	inactive
CC1(C)C(=O)CCC2(C)C1C(O)C=C1COC(=O)C12O (configuration not stated)	inactive
C/C=C(\C)C(=O)OC[C@H]1O[C@H](O[C@H]2O[C@H](CO)[C@@H](O)[C@H](O)[C@H]2O[C@@H]2O[C@H](CO)[C@@H](O)[C@H](O)[C@H]2O)[C@H](O[C@@H]2O[C@H](CO)[C@@H](O)[C@H](O)[C@H]2O)[C@@H](O)[C@@H]1O	inactive [at 17.4 µM]
Cc1sc(C)c(C(=O)NC2(c3ccc(C(=O)O)cc3)CC2)c1Cc1ccc(C(F)(F)F)cc1	inactive
C/C=C/C=C/C=C/C(=O)OC1C=C2C(O)OC(=O)[C@]2(O)[C@@]2(C)CCCC(C)(C)[C@H]12 (some centres not stated)	inactive [at 17.4 µM]
CC(O)C1CCC2C3CCC4CC(OC5OC(C(=O)O)C(O)C(O)C5O)CCC4(C)C3CCC12C (configuration not stated)	inactive
COc1cccc2c1c(O)c(C(=O)N(C)c1ccc(C(F)(F)F)cc1)c(=O)n2C	inactive
CC(C)NC(=O)c1ccc(C#Cc2ccncc2)cn1	inactive
COc1ccc(CCc2nc3cc(-c4c(C)noc4C)ccc3n2C[C@H](C)N2CCOCC2)cc1Cl	inactive
CCCC(=O)Nc1cccc(NC(=O)c2ccccc2Br)c1	inactive
C=C(CC/C=C(\C)C(=O)O)C1(O)CC=C(C)CC1 (configuration not stated)	inactive
CCCO[C@@H]1O[C@H](CO)[C@@H](O)[C@H](O)[C@H]1O[C@@H]1OC[C@@H](O)[C@H](O)[C@H]1O	inactive
O=C(O)Cc1cn([C@@H]2O[C@H](CO)[C@@H](O)[C@H](O)[C@H]2O[C@@H]2O[C@H](CO)[C@@H](O)[C@H](O)[C@H]2O)c2ccccc12	inactive [at 17.4 µM]

###

# Test system: Zika virus NS2B-NS3 protease (unlinked complex)
# TEST SUMMARY: Primary screen GU Rhodamine qHTS for Zika virus inhibitors: Unlinked NS2B-NS3 protease assay (AID 1347159); note: nearly all actives have a fitted effect of over 60% in size
# COND: Recombinant ZIKV NS2B-NS3 protease, Rhodamine110 substrate fluorescence; series mostly up to 107 µM
Inconclusive results are not listed. The source made the active and inactive calls. Calls follow the shape of the dose curve; as a rule, active = well fitted inhibition curve with a large enough effect; inconclusive = small, poorly fitted or top-dose-only effect; inactive = no such curve, though single readings can be large or run the other way.
Possible outcomes: 1 (active), 0 (inactive)

MOLECULE	ANSWER LABEL
CC(=O)O[C@@H](C[C@@H]1C=C(C)C(=O)O1)[C@H](C)[C@H]1CCC2[C@@]3(C)CC[C@H](O[C@@H]4O[C@H](CO)[C@@H](O)[C@H](O)[C@H]4O[C@@H]4O[C@@H](C)[C@H](O)[C@@H](O)[C@H]4O)C(C)(C)C3CC[C@@]2(C)[C@@]12COC(=O)C2 (stereo partly drawn)	0
O=C(CCc1ccccc1)c1c(O)c([C@@H]2O[C@H](CO)[C@@H](O)[C@H](O)[C@H]2O)c(O)c([C@@H]2O[C@H](CO)[C@@H](O)[C@H](O)[C@H]2O)c1O	0
C[C@@H]1O[C@@H](OC(=O)Cc2ccccc2)[C@H](O)[C@H](O)[C@H]1O	0
C=CC(C)(CC/C=C(\C)C(=O)OC)OC1OC(COC(=O)CC(C)(O)CC(=O)O)C(O)C(O)C1O (stereo not drawn)	0
CC1=C(CO)C2(C)CCCC(C)(C)C2C(O)C1O (stereo not drawn)	0
CC1(C)CC[C@]2(C(=O)O[C@@H]3O[C@H](CO)[C@@H](O)[C@H](O)[C@H]3O)CC[C@]3(C)C(=CCC4[C@@]5(C)CC[C@H](O[C@@H]6O[C@H](C(=O)O)[C@@H](O[C@@H]7O[C@H](CO)[C@@H](O)[C@H](O)[C@H]7O)[C@H](O)[C@H]6O)C(C)(C)C5CC[C@]43C)C2C1 (stereo partly drawn)	0
CC(=O)OC(C)(C)/C=C/C(=O)[C@](C)(O)C1[C@H](O)C[C@@]2(C)[C@@H]3CC=C4[C@@H](C[C@H](O[C@@H]5O[C@H](CO)[C@@H](O)[C@H](O)[C@H]5O)C(=O)C4(C)C)[C@]3(C)C(=O)C[C@]12C (stereo partly drawn)	0
C=C1CCc2occ(C)c2[C@H]2[C@H]1[C@@]13O[C@@]1(C[C@@H](C)[C@H]3OC(C)=O)[C@H]1O[C@@]21C	0
C[C@@H]1C[C@@H](O)[C@@]23CO[C@]2(CO)CCC[C@@H]3[C@@]12C[C@@H](c1ccoc1)OC2=O	0
COc1c(O)cc2c(c1O)C(=O)O[C@H](C)[C@H]2O	0
C/C(=C\CCC(C)C1CC(O)C2(C)C3CCC4C(C)(C)C(OC5OCC(O)C(O)C5O)CCC45CC35CC(O)C12C)C(=O)O (stereo not drawn)	0
CN[C@H](CNC(=O)N1CCC[C@@H]([C@@H](OCCNC(=O)OC)c2cccc(Cl)c2)C1)C[C@H]1CCCOC1	0
COc1cc([C@@H](O[C@@H]2O[C@H](CO)[C@@H](O)[C@H](O)[C@H]2O)[C@@H]2CO[C@H](c3ccc(O)c(OC)c3)[C@H]2CO)ccc1O	0
COc1ccc(C2OCC3C(c4cc(OC)c5c(c4)OCO5)OCC23)cc1OC (stereo not drawn)	0
CC(=O)OC12CC(C)C(O)C1/C=C(/COC1OC(CO)C(O)C(O)C1O)CCC1C(/C=C(\C)C2=O)C1(C)C (stereo not drawn)	0
CCCCC(=O)N1c2ccccc2NC2=C(C(=O)CCC2)C1c1ccccc1Cl (stereo not drawn)	0
Cc1oc(S(=O)(=O)N2CCCCC2)cc1NC(=O)Nc1ccccc1	0
COc1ccnc2[nH]cc(C(=O)C(=O)N3CCN(C(=O)c4ccccc4)CC3C)c12 (stereo not drawn)	0
C/C=C(\C)C(=O)OC[C@H]1O[C@@H](O[C@H]2[C@@H](O[C@H]3O[C@H](COC(=O)/C(C)=C/C)[C@@H](O)[C@H](O)[C@H]3O[C@@H]3O[C@H](COC(=O)/C(C)=C/C)[C@@H](O)[C@H](OC(=O)/C(C)=C/C)[C@H]3O)O[C@H](COC(=O)/C(C)=C/C)[C@@H](O)[C@@H]2O)[C@H](O)[C@@H](O)[C@@H]1O	0
CC(C)(O)C1CCC2(C)CCCC(C)(O)C2C1 (stereo not drawn)	0
Cn1cc(Nc2cnccc2C(=O)O)c2cccnc21	0
CC1=CCC(O)C2(C)CCC3C(C)C(=O)OC3C12 (stereo not drawn)	0
C=C(C)[C@@H]1CC[C@]2(C(=O)O)CC[C@]3(C)C(CCC4[C@]5(C)C(CC[C@]43C)C(C)(C)[C@@H](O)[C@@H]5C(=O)O)C12 (stereo partly drawn)	0
COc1cc(O)cc2c1C(=O)OC(C)C2 (stereo not drawn)	0
COc1cc(Nc2nc3ccccc3nc2NS(=O)(=O)c2cccc(NC(=O)c3ccc(C)c(OC)c3)c2)cc(OC)c1	1
CC1(C)CC2C3=CCC4[C@@]5(C)CC[C@H](OC6OCC(O)C(OC7OC(CO)C(O)C(O)C7O)C6O)C(C)(C)C5CC[C@@]4(C)[C@]3(C)C[C@H](O)[C@@]2(CO)[C@H](OC(=O)c2ccccc2)C1 (stereo partly drawn)	0
CC(C)C1C(OC(=O)/C=C/c2ccccc2)CC2(C)OC2CCC2(C)OC2C1O (stereo not drawn)	0
CN1CCN(c2nc(-c3ccc(C(=O)NC4(C(=O)NCC#N)CCCCC4)cc3)cs2)CC1	0
